Reference source: patent US20230416248A1

target: BRG-1 (Homo sapiens, UniProt P51532)
Construct: made in house; host or cells: High Five insect cells
Sequence (P51532 whole entry): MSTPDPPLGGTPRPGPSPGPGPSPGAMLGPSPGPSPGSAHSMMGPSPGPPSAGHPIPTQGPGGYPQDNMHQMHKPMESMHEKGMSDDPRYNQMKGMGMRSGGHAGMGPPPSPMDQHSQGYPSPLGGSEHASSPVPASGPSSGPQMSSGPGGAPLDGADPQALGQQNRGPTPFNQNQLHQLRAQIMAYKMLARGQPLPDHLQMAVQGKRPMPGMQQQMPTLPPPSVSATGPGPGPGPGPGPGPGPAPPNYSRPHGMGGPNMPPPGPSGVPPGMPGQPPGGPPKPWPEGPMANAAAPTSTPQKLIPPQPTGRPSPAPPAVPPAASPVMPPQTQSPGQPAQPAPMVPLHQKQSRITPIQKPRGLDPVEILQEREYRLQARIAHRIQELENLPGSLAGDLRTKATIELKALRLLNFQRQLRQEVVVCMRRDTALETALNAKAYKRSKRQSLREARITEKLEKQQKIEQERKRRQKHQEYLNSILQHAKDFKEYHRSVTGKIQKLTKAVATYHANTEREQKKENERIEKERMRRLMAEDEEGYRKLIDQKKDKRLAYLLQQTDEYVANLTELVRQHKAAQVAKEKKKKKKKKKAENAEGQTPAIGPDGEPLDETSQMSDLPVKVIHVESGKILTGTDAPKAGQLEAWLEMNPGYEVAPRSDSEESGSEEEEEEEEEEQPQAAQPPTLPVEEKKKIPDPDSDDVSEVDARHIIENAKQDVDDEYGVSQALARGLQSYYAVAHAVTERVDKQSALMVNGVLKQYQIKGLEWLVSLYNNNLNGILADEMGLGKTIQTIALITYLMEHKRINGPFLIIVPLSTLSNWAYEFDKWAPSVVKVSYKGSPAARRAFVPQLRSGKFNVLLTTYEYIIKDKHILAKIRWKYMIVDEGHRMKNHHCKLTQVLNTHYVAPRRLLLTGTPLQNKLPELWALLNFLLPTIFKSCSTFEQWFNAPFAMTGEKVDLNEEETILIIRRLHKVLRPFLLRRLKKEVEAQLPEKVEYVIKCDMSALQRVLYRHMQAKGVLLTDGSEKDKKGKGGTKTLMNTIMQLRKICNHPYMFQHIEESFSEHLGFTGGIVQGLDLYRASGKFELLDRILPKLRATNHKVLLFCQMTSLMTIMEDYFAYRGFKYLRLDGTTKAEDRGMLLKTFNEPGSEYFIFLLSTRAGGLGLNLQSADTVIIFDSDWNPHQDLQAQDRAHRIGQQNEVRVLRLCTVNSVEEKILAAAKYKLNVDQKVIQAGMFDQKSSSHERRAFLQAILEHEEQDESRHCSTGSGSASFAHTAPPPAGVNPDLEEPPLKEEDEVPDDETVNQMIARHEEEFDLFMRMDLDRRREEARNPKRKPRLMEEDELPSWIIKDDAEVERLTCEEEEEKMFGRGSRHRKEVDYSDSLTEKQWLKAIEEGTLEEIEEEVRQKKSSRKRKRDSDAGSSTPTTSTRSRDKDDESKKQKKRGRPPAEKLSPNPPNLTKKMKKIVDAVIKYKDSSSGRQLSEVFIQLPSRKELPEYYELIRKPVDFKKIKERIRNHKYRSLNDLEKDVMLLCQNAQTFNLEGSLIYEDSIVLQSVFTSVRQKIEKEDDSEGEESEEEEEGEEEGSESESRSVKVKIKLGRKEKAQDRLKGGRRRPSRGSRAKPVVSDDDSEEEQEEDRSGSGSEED
test-name: ATPase catalytic activity of BRG-1, ADP-Glo in vitro biochemical assay
cond: ADP-Glo ATPase assay, 30 nM BRG-1, 400 μM ATP; read-out: BRG1 IC50
pIC50: −log10 of the molar value.
property-name: pIC50

a. O=C(NCc1cc2nc(N3CCCc4cnccc43)ccc2cn1)c1ccc2c(c1)S(=O)(=O)CCOC2
b. O=C(NCc1cc2nc(N3CCCc4cc(C5CC5)ncc43)ccc2cn1)c1ccc2c(c1)S(=O)(=O)CCOC2
c. C[C@@H]1CN(c2cccc(-c3ccc4cnc(CNC(=O)c5ccc(Cl)c(S(C)(=O)=O)c5)cc4n3)n2)C[C@H](C)O1
d. CN1CCOc2c(-c3ccc4cnc(CNC(=O)c5ccc6c(c5)S(=O)(=O)CCOC6)cc4n3)ccnc21
[Q] Sort these compounds on pIC50 so the largest reading comes first. Enter labels, ranked according to the request.
[A] c, b, d, a
(c: 6.88, b: 6.53, d: 6.26, a: 5.67)

* * *

target: BRM (Homo sapiens, UniProt P51531)
Construct: made in house; host or cells: High Five insect cells
Sequence (P51531 whole entry): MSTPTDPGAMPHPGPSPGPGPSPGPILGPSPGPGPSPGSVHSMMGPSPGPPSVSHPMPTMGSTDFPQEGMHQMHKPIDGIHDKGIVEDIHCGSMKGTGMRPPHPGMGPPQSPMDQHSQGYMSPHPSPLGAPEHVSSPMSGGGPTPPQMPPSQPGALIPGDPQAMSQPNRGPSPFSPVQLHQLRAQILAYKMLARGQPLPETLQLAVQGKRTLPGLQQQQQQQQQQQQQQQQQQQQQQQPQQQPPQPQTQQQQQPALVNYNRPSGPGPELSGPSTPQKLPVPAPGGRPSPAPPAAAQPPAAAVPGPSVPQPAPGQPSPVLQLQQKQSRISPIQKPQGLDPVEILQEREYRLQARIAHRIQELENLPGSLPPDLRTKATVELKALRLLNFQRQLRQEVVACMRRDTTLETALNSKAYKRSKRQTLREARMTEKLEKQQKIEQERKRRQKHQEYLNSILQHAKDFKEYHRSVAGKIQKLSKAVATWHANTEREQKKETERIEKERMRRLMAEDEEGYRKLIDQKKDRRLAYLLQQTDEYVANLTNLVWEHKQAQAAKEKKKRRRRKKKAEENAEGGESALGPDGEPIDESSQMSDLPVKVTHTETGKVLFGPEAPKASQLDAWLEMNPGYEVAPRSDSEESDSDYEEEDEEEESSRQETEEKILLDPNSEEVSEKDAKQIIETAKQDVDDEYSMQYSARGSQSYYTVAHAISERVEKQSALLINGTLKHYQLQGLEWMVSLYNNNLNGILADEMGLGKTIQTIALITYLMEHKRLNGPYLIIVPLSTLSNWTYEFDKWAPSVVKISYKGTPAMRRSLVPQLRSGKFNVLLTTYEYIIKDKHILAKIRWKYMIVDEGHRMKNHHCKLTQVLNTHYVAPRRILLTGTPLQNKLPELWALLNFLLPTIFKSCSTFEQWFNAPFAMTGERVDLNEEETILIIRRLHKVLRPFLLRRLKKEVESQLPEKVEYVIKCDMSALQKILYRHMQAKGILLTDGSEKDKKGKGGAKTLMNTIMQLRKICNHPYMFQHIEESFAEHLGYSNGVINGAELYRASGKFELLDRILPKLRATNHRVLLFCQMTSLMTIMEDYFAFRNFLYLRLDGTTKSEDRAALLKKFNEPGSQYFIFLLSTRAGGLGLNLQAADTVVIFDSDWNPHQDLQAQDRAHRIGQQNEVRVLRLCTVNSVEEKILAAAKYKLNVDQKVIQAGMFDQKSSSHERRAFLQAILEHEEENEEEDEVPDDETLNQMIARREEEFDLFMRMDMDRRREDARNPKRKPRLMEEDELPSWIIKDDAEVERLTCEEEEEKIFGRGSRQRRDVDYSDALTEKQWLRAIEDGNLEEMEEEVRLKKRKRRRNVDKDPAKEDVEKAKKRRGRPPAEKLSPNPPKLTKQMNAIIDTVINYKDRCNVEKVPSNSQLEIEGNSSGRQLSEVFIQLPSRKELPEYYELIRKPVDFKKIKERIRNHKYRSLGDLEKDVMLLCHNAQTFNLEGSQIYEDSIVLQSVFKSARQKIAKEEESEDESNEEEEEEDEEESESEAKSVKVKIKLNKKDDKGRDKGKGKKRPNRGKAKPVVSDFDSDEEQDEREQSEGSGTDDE
test-name: ATPase catalytic activity of BRM, ADP-Glo in vitro biochemical assay
cond: ADP-Glo ATPase assay, 30 nM BRM, 400 μM ATP
pIC50: −log10 of the molar value.
property-name: pIC50

compound=C[C@@H]1COCCN1c1cccc(-c2ccc3cnc(CNC(=O)c4ccc5c(c4)S(=O)(=O)CCOC5)cc3n2)n1 observed=7.39
compound=O=C(NCc1cc2nc(N3CCc4ccccc43)ccc2cn1)c1ccc2c(c1)S(=O)(=O)CCOC2 observed=6.83
compound=O=C(NCc1cc2nc(N3CCCc4ccncc43)ccc2cn1)c1ccc2c(c1)S(=O)(=O)CCOC2 observed=7.12
compound=CO[C@H]1C[C@H](N(C)c2cccc(-c3ccc4cnc(CNC(=O)c5ccc6c(c5)S(=O)(=O)CCOC6)cc4n3)n2)C1 observed=7.76
compound=O=C(NCc1cc2nc(N3CCOc4c3cnc(C3CC3)c4F)ccc2cn1)c1ccc2c(c1)S(=O)(=O)CCOC2 observed=7.42
compound="CC1OCCS(=O)(=O)c2cc(C(=O)NCc3cc4nc(-c5cccc(N6C[C@@H](C)O[C@@H](C)C6)n5)ccc4cn3)ccc21 (stereo partly drawn)" observed=8.02
compound="O=C(NCc1cc2nc(N3CCCc4ccc(OCC5CCOC5)cc43)ccc2cn1)c1ccc2c(c1)S(=O)(=O)CCOC2 (stereo not drawn)" observed=8.28
compound=CN(C)c1cccc(-c2ccc3cnc(CNC(=O)c4cc(F)c5c(c4)S(=O)(=O)CCOC5)cc3n2)n1 observed=7.92

1. CS(=O)(=O)c1cc(C(=O)NCc2cc3nc(-c4cccc(N5CC[C@@H]6COC[C@@H]6C5)n4)ccc3cn2)ccc1C(F)F
2. COC(C)(C)CN(C)c1cccc(-c2ccc3cnc(CNC(=O)c4ccc5c(c4)S(=O)(=O)CCOC5)cc3n2)n1
[Q] // returns 1 or 2 , whichever has the lower pIC50 The response must carry the label of the picked entry.
[A] 2

P. C[C@@H]1CN(c2cccc(-c3ccc4cnc(CNC(=O)c5ccc6c(c5)S(=O)(=O)CCN(C)C6)cc4n3)n2)C[C@H](C)O1
Q. O=C(NCc1cc2nc(-c3cccc(N4CCC4)n3)ccc2cn1)c1ccc2c(c1)S(=O)(=O)CCOC2
R. CO[C@H](C)c1cccc(-c2ccc3cnc(CNC(=O)c4ccc5c(c4)S(=O)(=O)CCOC5)cc3n2)n1
[Q] Ascending by pIC50, please: list the compounds accordingly. Enter labels, ranked according to the request.
[A] R, P, Q
(R: 6.36, P: 7.46, Q: 8.03)
